- TARGET_UNDER_TEST: human orexin type 2 receptor (hOX2R) (Homo sapiens)
- Construct: expressed in transfected cells
- Sequence (O43614 whole entry): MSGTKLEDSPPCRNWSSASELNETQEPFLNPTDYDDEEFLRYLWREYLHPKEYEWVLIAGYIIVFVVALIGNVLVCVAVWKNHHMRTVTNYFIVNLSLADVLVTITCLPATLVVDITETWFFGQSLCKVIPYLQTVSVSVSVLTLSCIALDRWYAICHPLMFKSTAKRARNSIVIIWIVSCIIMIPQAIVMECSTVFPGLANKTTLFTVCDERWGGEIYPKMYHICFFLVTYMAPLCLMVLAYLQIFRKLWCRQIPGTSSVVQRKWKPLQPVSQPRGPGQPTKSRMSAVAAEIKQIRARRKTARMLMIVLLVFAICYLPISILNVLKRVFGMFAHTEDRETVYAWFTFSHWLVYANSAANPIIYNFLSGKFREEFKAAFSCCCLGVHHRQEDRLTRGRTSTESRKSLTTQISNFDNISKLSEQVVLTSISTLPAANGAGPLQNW
- ASSAY_REMARKS: Measurement of orexin type 2 receptor agonist activity (FLIPR calcium fluorescence)
- Format: cell-based
- EXPERIMENTAL_PARAMETERS: CHO cells expressing hOX2R, FLIPR calcium fluorescence; read-out: hOx2 pEC50 (converted)
- Experimental: The biological activity of the compounds of the present disclosure may be determined in cells stably expressing either orexin type 2 or orexin type 1 receptor. […] The agonist activity of a compound of the present disclosure may be determined by fluorescence value. Stable cell line generation. Measurement of orexin type 2 receptor agonist activity. […] As used herein, E. indicates the value at 10 μM concentration when orexin A is converted to a full agonist (maximum value of agonist activity. 100%).
As shown below, each of these compounds has a reported EC50 value.

Notebook: COCCOCCS(=O)(=O)N[C@@H]1[C@H](Cc2cccc(-c3ccccc3)c2)N(C(=O)[C@H]2CCO2)CC12CC2 [Compound 74] , EC50 read as 10 to 100 nM

Notebook: C[C@@H](F)C(=O)N1CC2(CC2)[C@H](NS(=O)(=O)CF)[C@@H]1Cc1cc(F)cc(-c2cccc(F)c2)c1F [Compound 394] , EC50 read as 0.0794 to 1 nM

Notebook: CC(C)(O)C(=O)N1CC2(CC2)[C@H](NS(=O)(=O)CF)[C@@H]1Cc1cccc(-c2ccccc2)c1F [Compound 134] , EC50 read as 1 to 10 nM

Notebook: CS(=O)(=O)NC1C(Cc2cccc(-c3ccccc3)c2)N(C(=O)[C@H]2C[C@H](F)C2)CC12CC2 (mixture of isomers) [Compound 49] , EC50 read as 1 to 10 nM
